test: Cellular Toxicity (caspase-3) Hek293 (AID 664); conditions: HEK293 caspase-3 activation, DMSO = 0%, 100 µM tamoxifen = 100%; at 92.2 µM (top of the series);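 further: cells exposed to compound for 16 h at 37 °C before readout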
Results filed as inconclusive are left out.
property_measured: caspase-3 activation (%)
Report as a plain number; the unit % is understood.

Previously resolved entries follow.
FC(F)(F)c1ccc(Cl)cc1    3.4
O=[N+]([O-])c1cc(C(F)(F)F)cc([N+](=O)[O-])c1Cl    -11.2
O=C(O)C1C(C(=O)O)C2(Cl)C(Cl)=C(Cl)C1(Cl)C2(Cl)Cl (stereo not drawn)    1.7
CC(C)CC(C)Nc1ccc(Nc2ccccc2)cc1 (stereo not drawn)    12.2
Clc1ccc(C(c2ccc(Cl)cc2)C(Cl)Cl)cc1    127

In: Query caspase-3 activation for CN(C)c1ccc(N=O)cc1
Out: 9.09

In: Query caspase-3 activation for C#CCO
Out: 1.98

In: Query caspase-3 activation for C[C@@H]1CC[C@@]2(OC1)O[C@H]1[C@@H](O)[C@H]3[C@@H]4CC[C@H]5C[C@@H](O[C@@H]6O[C@H](CO)[C@H](O[C@@H]7O[C@H](CO)[C@@H](O)[C@H](O[C@@H]8OC[C@@H](O)[C@H](O)[C@H]8O)[C@H]7O[C@@H]7O[C@H](CO)[C@@H](O)[C@H](O[C@@H]8O[C@H](CO)[C@@H](O)[C@H](O)[C@H]8O)[C@H]7O)[C@H](O)[C@H]6O)[C@H](O)C[C@]5(C)[C@H]4CC[C@]3(C)[C@H]1[C@@H]2C
Out: -8.63

----------
test system: N140; assay: qHTS profiling for inhibitors of Plasmodium falciparum proliferation (AID 504749); further: nearly all actives have a fitted effect of over 60% in size; details: P. falciparum in erythrocytes, SYBR Green DNA, 72 h; series mostly up to 28.7 µM
Records with an inconclusive call do not appear. The source made the active and inactive calls. Calls come from the whole dose curve; as a rule, active = well fitted inhibition curve with a large enough effect; inconclusive = small, poorly fitted or top-dose-only effect; inactive = flat fitted curve, though single readings scatter.
Respond only with the outcome that fits, drawn from active, inactive

Reference set, count: 5
Cc1cc(C)cc(C(=O)OC2CC3CCC(C2)N3C)c1 (centres undefined)    inactive
CC(C)=CC1C(C(=O)OCc2coc(Cc3ccccc3)c2)C1(C)C (centres undefined)    inactive
CC1(C)S[C@@H]2[C@H](N)C(=O)N2C1C(=O)O (some centres undefined)    inactive
CCOC(=O)c1cncn1[C@@H](C)c1ccccc1    inactive
CCC/C=C/C=C/C(=O)OC1/C(=C/C(=O)OC)CC2CC(C(C)O)OC(=O)CC(O)CC3CC(OC(C)=O)C(C)(C)C(O)(CC4C/C(=C/C(=O)OC)CC(/C=C\C(C)(C)C1(O)O2)O4)O3 (centres undefined)    active

Consider the record given below.
In: Assay result, entry C[C@H](N)Cc1ccccc1 — outcome?
Out: inactive

----------
system: CP247; assay: qHTS profiling for inhibitors of Plasmodium falciparum proliferation (AID 504749); further: nearly all actives have a fitted effect of over 60% in size; details: P. falciparum in erythrocytes, SYBR Green DNA, 72 h; series mostly up to 28.7 µM
Inconclusive results are not listed. The source made the active and inactive calls. Calls come from the whole dose curve; as a rule, active = well fitted inhibition curve with a large enough effect; inconclusive = small, poorly fitted or top-dose-only effect; inactive = flat fitted curve, though single readings scatter.
Respond only with the outcome that fits, drawn from active, inactive

Reference set, count: 3
CC(=O)O[C@H]1C[C@H](O[C@H]2[C@@H](O)CC(O[C@H]3[C@@H](O)C[C@H](O[C@H]4CC[C@@]5(C)[C@H](CC[C@@H]6[C@@H]5CC[C@]5(C)[C@@H](C7=CC(=O)OC7)CC[C@]65O)C4)O[C@@H]3C)O[C@@H]2C)O[C@H](C)[C@H]1O[C@@H]1O[C@H](CO)[C@@H](O)[C@H](O)[C@H]1O (some centres undefined)    inactive
CN(C)[C@@H](Cc1ccccc1)c1ccccc1    active
O=C1CC2OCC=C3CN4CC[C@]56c7ccccc7N1C5C2[C@H]3C[C@H]46 (some centres undefined)    inactive

In: Assay result, entry C#CC1(O)C=CC2C3CCC4=CC(=O)CCC4C3CCC21CC (centres undefined) — outcome?
Out: active
